These data points were gathered from patent US20260035382A1.

Molecular target: SAE (Homo sapiens (Human))
Sequence (Q9UBT2 whole entry): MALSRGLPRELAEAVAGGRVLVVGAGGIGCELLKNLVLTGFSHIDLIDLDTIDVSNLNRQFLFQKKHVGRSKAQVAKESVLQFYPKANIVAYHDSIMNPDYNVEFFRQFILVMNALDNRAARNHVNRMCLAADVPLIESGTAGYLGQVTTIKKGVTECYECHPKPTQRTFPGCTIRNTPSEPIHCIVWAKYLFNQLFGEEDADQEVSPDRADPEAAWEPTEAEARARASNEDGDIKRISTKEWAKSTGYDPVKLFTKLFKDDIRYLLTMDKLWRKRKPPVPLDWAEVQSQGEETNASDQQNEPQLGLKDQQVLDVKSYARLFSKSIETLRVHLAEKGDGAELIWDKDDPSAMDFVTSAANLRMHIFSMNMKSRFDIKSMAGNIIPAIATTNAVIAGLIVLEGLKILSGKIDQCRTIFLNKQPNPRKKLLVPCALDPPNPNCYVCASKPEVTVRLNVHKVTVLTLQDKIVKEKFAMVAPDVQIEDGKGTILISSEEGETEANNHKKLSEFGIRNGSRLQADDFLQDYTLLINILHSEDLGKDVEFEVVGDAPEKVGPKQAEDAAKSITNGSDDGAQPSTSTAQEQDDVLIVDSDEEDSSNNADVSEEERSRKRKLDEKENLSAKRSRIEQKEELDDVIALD
Sequence (Q9UBE0 whole entry partner): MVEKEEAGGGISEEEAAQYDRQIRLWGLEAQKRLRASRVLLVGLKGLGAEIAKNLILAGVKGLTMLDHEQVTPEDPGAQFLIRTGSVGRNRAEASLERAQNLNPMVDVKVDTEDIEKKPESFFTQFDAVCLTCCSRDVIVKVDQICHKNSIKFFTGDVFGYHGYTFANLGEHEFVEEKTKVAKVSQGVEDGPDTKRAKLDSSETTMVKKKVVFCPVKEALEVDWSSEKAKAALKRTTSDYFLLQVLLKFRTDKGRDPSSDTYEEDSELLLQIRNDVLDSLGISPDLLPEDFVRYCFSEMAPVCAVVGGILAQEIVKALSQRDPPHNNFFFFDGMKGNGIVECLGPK
Assay: In vitro inhibitory activity assay against SAE (SUMO-2/3 immunofluorescence in HCT116 cells)
Assay type: cell-based
Conditions: 6 h incubation, class symbols, read-out: SUMO IF IC50
Recorded IC50, one value per entry.

Below, 5 molecules whose answers are already recorded.
NS(=O)(=O)OC[C@H]1C[C@@H](Nc2ncncc2C(=O)c2cc3c(s2)C=C[C@@]32NCCc3ccc(F)cc32)C[C@@H]1O :: > 200 nM
NS(=O)(=O)OC[C@H]1C[C@@H](Nc2ncncc2C(=O)c2cc3c(s2)CCC[C@@]32NC(=O)Cc3ccc(Cl)cc32)C[C@@H]1O :: > 200 nM
C#CCN1Cc2sc(C(=O)c3cncnc3N[C@@H]3C[C@H](COS(N)(=O)=O)[C@@H](O)C3)cc2C2(C1)NCCc1ccc(Cl)cc12 (stereo partly drawn) :: ≤ 50 nM
NS(=O)(=O)OC[C@H]1C[C@@H](Nc2ncncc2C(=O)c2cc3c(s2)CNC[C@]32NCCc3ccc(Cl)cc32)C[C@@H]1O :: 50 to 200 nM
NS(=O)(=O)OC[C@H]1C[C@@H](Nc2ncncc2C(=O)c2cc3c(s2)CCCC32NCCc3cnc(Cl)cc32)C[C@@H]1O (stereo partly drawn) :: 50 to 200 nM

Below: the item to evaluate.
// IC50 value for NS(=O)(=O)OC[C@H]1C[C@@H](Nc2ncncc2C(=O)c2cc3c(s2)CCC32NCCc3cc(F)c(Cl)c(F)c32)C[C@@H]1O (stereo partly drawn) : 50 to 200 nM
